- Measured On: T1, BRM AT (AT-hook alone) (Homo sapiens, UniProt P51531 1358-1377)
- T1 chain: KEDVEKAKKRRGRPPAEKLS
- Assay Notes: NMR
pKd: −log10 of the molar value.

| Binder | pKd |
| --- | --- |
| 10 bp NMR dsDNA (dsDNA) DNA 1: CTCAATTGGT DNA 2: ACCAATTGAG | 3.66 |
